# credit: patent US20220056124A1

- TARGET UNDER TEST: T1, recombinant human endotrophin (77 amino acids at the carboxy-terminal of the COL6α3 chain, HEK293-expressed, … (human, UniProt P12111 3101-3177))
- T1 construct: the His-tag was removed by enterokinase, leaving the 77 amino acid endotrophin free of tags; also called ETP; recombinant endotrophin protein
- T1 sequence (P12111 3101-3177 limits assumed): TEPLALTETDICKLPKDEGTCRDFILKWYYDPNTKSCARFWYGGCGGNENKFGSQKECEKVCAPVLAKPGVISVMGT
- ASSAY PROCEDURE: BLI (Octet RED96), antibody on protein A biosensors, endotrophin 0.1-200 nM, 1:1 fit
Please provide measured kon for the entries that follow.
The reply should contain only the number, in M⁻¹ s⁻¹.

Return kon (reported value) for this binder: ETP-mAb4.2 (humanized ETP-hMab4) (antibody, human IgG1, V domains shown, also called ENT-hMab4.2) VH: EVQLLESGGGLVQPGGSLRLSCAASGFSFSSGYYICWVRQAPGKGLEWIACIYGGNSNPYYANWVNGRFTISRDNSKNTLYLQMNSLRAEDTAVYYCARKDINIGGAYELWGQGTLVTVSS VL: DIQMTQSPSSLSASVGDRVTITCQASQSISSSYLSWYQQKPGKAPKLLIYKASTLASGVPSRFSGSGSGTDFTLTISSLQPEDFATYYCQYSDWANSYGNAFGGGTKVEIK 123000

Identify measured kon corresponding to ETP-mAb4 (antibody, V domains shown, Rabbit monoclonal; also called parental rabbit ETPmAb4) VH: SSRVKESGGDLVKPGASLTLTCKASGFSFSSGYYICWVRQAPGKGLEWIACIYGGNNNPYYANWVNGRFTTSKTSSTTVTLQMTNLTGADTATYFCARKDINIGGAYELWGPGTLVTISS VL: ELVMTQTPASVSEPVGGTVTINCQASQSISSSYLSWYQQKPGQPPKLLIYKASTLASGVPSRFKGSGSGTQFSLTISDLECADAATYYCQYSDWANSYGNAFGGGTEVVVK 142000

State its kon for this binder: ETP-mAb4.1 (humanized ETP-hMab4) (antibody, human IgG1, V domains shown, Humanized; tied by the number 4.1; also called ENT-hMab4.1) VH: EVQLLESGGGLVQPGGSLRLSCAASGFSFSSGYYICWVRQAPGKGLEWIACIYGGNNNPYYANWVNGRFTISRDNSKNTLYLQMNSLRAEDTAVYYCARKDINIGGAYELWGQGTLVTVSS VL: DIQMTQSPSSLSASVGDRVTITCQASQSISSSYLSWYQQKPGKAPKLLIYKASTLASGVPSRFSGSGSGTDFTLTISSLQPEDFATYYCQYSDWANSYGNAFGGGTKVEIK 116000

Please indicate kon recorded for ETP-mAb4.4 (humanized ETP-hMab4) (antibody, human IgG1, V domains shown, also called ENT-hMab4.4) VH: EVQLLESGGGLVQPGGSLRLSCAASGFSFSSGYYICWVRQAPGKGLEWIACIYGGNNNPYYANWVNGRFTTSRDNSKNTLYLQMNSLRAEDTAVYYCARKDINIGGAYELWGQGTLVTVSS VL: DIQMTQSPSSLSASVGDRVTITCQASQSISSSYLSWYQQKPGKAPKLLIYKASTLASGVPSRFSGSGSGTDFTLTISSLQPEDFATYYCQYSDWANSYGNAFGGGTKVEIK 130000
